Hello, the source for this data is paper PMC4780864, in case you need it.

# SYSTEM UNDER TEST: UniProt Q2M2I8
# Sequence (Q2M2I8 27-365 limits assumed): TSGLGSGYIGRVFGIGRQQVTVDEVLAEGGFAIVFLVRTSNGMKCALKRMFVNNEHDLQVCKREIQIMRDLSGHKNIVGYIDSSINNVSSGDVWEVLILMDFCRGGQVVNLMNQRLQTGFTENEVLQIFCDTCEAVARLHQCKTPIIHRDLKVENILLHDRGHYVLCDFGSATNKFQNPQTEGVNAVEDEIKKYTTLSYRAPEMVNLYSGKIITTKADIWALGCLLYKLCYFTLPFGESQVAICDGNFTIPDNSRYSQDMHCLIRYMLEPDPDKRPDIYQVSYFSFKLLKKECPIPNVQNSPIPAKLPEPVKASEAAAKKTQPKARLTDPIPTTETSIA
# METHOD: biochemical
# Set-up: kinase domain; Thermal shift assay (DSF, SYPRO Orange), 2 uM kinase domain, mean delta Tm of triplicates versus DMSO
# MEASUREMENT CONTEXT: read-out: AAK1
Please respond with reported ΔTm at 12.5 µM for every item in the list.
Kindly answer with a numeric value in °C, unit omitted.

So what's the measured ΔTm at 12.5 µM for this one? COc1cc2ncnc(Nc3ccc(F)c(Cl)c3)c2cc1OCCCN1CCOCC1 [Gefitinib]
1.69

So what's the measured ΔTm at 12.5 µM for this one? Cc1cn(-c2cc(NC(=O)c3ccc(C)c(Nc4nccc(-c5cccnc5)n4)c3)cc(C(F)(F)F)c2)cn1 [Nilotinib]
1.13

So what's the measured ΔTm at 12.5 µM for this one? CCc1cc2c(cc1N1CCC(N3CCOCC3)CC1)C(C)(C)c1[nH]c3cc(C#N)ccc3c1C2=O [Alectinib]
0.613

So what's the measured ΔTm at 12.5 µM for this one? C[C@@H](Oc1ccc2[nH]nc(/C=C/c3cnn(CCO)c3)c2c1)c1c(Cl)cncc1Cl [LY2874455]
11.6

So what's the measured ΔTm at 12.5 µM for this one? CNC(=O)c1cc(Oc2ccc(NC(=O)Nc3ccc(Cl)c(C(F)(F)F)c3)c(F)c2)ccn1 [Regorafenib]
1.02

So what's the measured ΔTm at 12.5 µM for this one? Cc1cc(C(C)Nc2ccccc2)c2nc(N3CCOCC3)cc(=O)n2c1 (centres unmarked) [TGX-221]
0.26

So what's the measured ΔTm at 12.5 µM for this one? Cc1ccc(Nc2nccc(N(C)c3ccc4c(C)n(C)nc4c3)n2)cc1S(N)(=O)=O [Pazopanib]
3.85

So what's the measured ΔTm at 12.5 µM for this one? Cc1nc(NC(=O)N2CCC[C@H]2C(N)=O)sc1-c1ccnc(C(C)(C)C(F)(F)F)c1 [BYL719]
4.38

So what's the measured ΔTm at 12.5 µM for this one? NC(=O)Nc1cc(-c2cccc(F)c2)sc1C(=O)N[C@H]1CCCNC1 [AZD7762]
10.8

So what's the measured ΔTm at 12.5 µM for this one? COc1cc(N2CCC(N3CCN(C)CC3)CC2)ccc1Nc1ncnc(Nc2ccccc2S(=O)(=O)C(C)C)n1 [ASP3026]
4.23

So what's the measured ΔTm at 12.5 µM for this one? COc1cc(Nc2ncc3c(n2)-c2ccc(Cl)cc2C(c2c(F)cccc2OC)=NC3)ccc1C(=O)O [Alisertib]
0.29

So what's the measured ΔTm at 12.5 µM for this one? Cc1ccc([N+](=O)[O-])cc1S(=O)(=O)N(C)/N=C/c1cnc2ccc(Br)cn12 [PIK-75]
5

So what's the measured ΔTm at 12.5 µM for this one? O=C(NC[C@H](O)CO)c1ccncc1Nc1ccc(I)cc1F [Pimasertib]
0.0267

So what's the measured ΔTm at 12.5 µM for this one? O=C(Nc1ccc2[nH]nc(-c3ccncc3)c2c1)[C@@H]1CCN(CC(=O)N2CCN(c3ccc(-c4ncccn4)cc3)CC2)C1 [SCH772984]
0.0767

So what's the measured ΔTm at 12.5 µM for this one? CC1(C)CNc2cc(NC(=O)c3cccnc3NCc3ccncc3)ccc21 [Motesanib]
0.467

So what's the measured ΔTm at 12.5 µM for this one? Nc1nccc(-c2c(-c3ccc(F)cc3)ncn2C2CCCCC2)n1 [PF-670462]
1.68

So what's the measured ΔTm at 12.5 µM for this one? COc1cc(OC2CCN(C)CC2)ccc1Nc1ncc2c(n1)n(C1CCCC1)c(=O)n2C [AZ3146]
5.37
